target: human TLR7 (Homo sapiens, UniProt Q9NYK1); assay: TLR7 inhibition reporter assay (HEK-Blue SEAP reporter); settings: HEK-Blue cells overexpressing human TLR7; gardiquimod 7.5 μM; 22 hour incubation
Sequence (Q9NYK1 27-1049): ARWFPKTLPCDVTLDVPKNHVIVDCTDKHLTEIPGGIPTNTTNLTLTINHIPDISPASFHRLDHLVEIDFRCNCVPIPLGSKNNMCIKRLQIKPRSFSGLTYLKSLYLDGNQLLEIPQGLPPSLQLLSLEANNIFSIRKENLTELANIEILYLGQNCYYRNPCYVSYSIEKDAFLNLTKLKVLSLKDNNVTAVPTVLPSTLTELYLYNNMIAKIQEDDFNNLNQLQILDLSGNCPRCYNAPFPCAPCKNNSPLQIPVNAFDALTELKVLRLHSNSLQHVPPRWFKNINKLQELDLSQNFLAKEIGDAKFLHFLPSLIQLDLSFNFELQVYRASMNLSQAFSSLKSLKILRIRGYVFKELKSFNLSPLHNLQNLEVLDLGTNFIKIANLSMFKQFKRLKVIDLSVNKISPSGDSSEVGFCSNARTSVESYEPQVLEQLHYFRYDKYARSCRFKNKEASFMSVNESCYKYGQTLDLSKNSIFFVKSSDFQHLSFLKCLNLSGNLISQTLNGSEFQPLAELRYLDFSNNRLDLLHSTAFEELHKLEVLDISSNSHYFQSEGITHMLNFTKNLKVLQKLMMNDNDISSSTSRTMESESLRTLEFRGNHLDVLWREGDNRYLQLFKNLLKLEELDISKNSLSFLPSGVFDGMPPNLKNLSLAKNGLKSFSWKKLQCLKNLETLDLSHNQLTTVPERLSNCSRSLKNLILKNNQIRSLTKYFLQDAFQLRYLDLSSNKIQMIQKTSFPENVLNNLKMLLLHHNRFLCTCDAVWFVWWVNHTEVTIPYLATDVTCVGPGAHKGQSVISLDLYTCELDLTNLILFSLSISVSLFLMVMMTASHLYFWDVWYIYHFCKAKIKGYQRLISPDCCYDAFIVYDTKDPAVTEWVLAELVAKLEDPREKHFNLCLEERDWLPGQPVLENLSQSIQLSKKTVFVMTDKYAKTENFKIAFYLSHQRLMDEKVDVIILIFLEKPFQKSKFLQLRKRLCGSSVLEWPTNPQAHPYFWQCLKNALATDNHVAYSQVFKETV
MET if IC50 is below 200 nM. NOT MET if not; exact matches included in NOT MET.

For orientation, consider the following solved cases.
INSERT INTO measurements (compound, label_class) VALUES
  ('CCc1c(-c2ccnc3[nH]ncc23)[nH]c2ccc(N3CCN(C4CCN(C(C)C)CC4)CC3)cc12 [Example 159]', 'NOT MET'),
  ('CC[C@@H](C)[C@@H](N)C(=O)Nc1ccc2[nH]c(-c3ccc(OC)c(OC)c3)c(C(C)C)c2c1 [Example 17]', 'NOT MET'),
  ('COc1ccc(-c2[nH]c3ccc(N4CCC(C)(N5CCOCC5)CC4)cc3c2C(C)C)cc1OC [Example 117]', 'MET');

Does COc1ccc(-c2[nH]c3ccc(NC(=O)[C@@H](N)C4CCCCC4)cc3c2C(C)C)cc1OC [Example 26] have IC50 strictly under 200 nM?
NOT MET

How about CCc1c(-c2ccc(OC)c(OC)c2)[nH]c2ccc(N3CCC(OC4CCN(CC)CC4)CC3)cc12 [Example 188] ?
MET

Moving on to CCc1c(-c2ccnc(OC)c2)[nH]c2ccc(N3CCN(C4CC(C)(C)NC(C)(C)C4)CC3)cc12 [Example 161]
MET

// next record COc1ccc(-c2[nH]c3ccc(N4CCC(NC5CCN(C(C)=O)CC5)CC4)cc3c2C(C)C)cc1OC [Example 89]
MET

Follow-up entry: COc1ccc(-c2[nH]c3ccc(NC4CCC(NCCCN(C)C)CC4)cc3c2C(C)C)cc1OC (centres unmarked) [Example 36]
NOT MET
